Cited source for all entries: the supplement of paper PMC3334620

Target: Mot3 (UniProt P54785)
Sequence: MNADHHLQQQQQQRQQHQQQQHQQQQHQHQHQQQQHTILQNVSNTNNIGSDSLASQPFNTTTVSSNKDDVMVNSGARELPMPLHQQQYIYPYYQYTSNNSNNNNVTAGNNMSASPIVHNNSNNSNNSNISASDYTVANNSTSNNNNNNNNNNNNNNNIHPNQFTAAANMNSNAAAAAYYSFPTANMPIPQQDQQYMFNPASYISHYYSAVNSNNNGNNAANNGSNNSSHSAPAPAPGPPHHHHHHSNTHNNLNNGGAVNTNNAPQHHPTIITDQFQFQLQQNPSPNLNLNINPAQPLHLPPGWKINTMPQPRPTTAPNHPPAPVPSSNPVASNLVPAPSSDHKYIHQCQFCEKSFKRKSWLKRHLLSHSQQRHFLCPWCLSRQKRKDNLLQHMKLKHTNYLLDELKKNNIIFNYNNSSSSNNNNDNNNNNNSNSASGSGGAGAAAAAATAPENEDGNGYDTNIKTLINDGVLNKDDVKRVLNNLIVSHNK
Assay: PBM E-score (8-mer binding enrichment) (E-score (-0.5 to 0.5)); higher = stronger / more preferred TF binding
Conditions: protein concentration: 200 nM; construct: GST-full length
The full ranking holds about 33,000 sequences; the median of “E-score (-0.5 to 0.5)” is about -0.035, and the highest 2% start at about 0.34. The entries come from a sample that favours the highest values as a whole.
endpoint: PBM E-score

Solved entries:
{"sequence_text": "GATGTCAA", "system_name": "Mot3 (UniProt P54785)", "endpoint": "PBM E-score", "result": 0.144}
{"sequence_text": "GCTACCTA", "system_name": "Mot3 (UniProt P54785)", "endpoint": "PBM E-score", "result": 0.0719}
{"sequence_text": "GAAGCCAC", "system_name": "Mot3 (UniProt P54785)", "endpoint": "PBM E-score", "result": -0.196}

Below are some sequences; for each one, tell me its PBM E-score.
1. TACGCAAA
2. AGTACCTA
3. CAGAGATG
4. CGTGTTTC
5. CGGAACAG
6. TCAACGGA
7. TGGAACAA
8. CCAGGAAA

a:
1. 0.206
2. 0.342
3. 0.0978
4. 0.106
5. -0.216
6. -0.113
7. 0.136
8. 0.324

Below are some sequences; for each one, tell me its PBM E-score.
1. ATGCCCAA
2. AGGTAAAT
3. CTTACCTA
4. GGGTAAAA
5. CTGCAGCA
6. CTTGGCAC

a:
1: -0.0977; 2: 0.318; 3: 0.175; 4: 0.112; 5: -0.0262; 6: -0.0521
